System name: Phosphorylase b kinase gamma catalytic chain, skeletal muscle/heart isoform (Homo sapiens) (UniProt Q16816);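 also: values are averaged percent inhibition of PHKG1 kinase activity, from the GSK PKIS inhibitor-set screen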
Sequence (Q16816 whole entry, looked up, canonical isoform): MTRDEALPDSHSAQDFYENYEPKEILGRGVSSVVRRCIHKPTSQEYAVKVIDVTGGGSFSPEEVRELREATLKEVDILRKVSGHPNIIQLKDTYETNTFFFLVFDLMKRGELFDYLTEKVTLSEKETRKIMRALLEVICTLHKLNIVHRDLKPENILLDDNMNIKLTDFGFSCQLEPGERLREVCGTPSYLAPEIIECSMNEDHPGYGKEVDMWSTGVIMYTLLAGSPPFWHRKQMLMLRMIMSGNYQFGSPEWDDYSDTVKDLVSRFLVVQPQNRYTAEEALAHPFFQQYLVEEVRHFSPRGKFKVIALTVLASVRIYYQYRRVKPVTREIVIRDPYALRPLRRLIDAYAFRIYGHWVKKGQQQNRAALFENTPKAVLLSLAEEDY
Condition label: at 0.1 µM
Label yes (1) for high-side inhibition (at or above 2%) and no (0) for low-side inhibition (below it).

Check the entry CN(C)CCNC(=O)Nc1ccc(N(C)c2ccnc(Nc3ccc(CS(C)(=O)=O)cc3)n2)cc1 : does inhibition equal or exceed 2%?
yes (1)

Check the entry CC1=C(C(=O)Nc2ccc3[nH]ncc3c2)C(c2ccc(F)cc2)N=C(c2ccc(C(F)(F)F)nc2)N1 (stereo not given) : does inhibition equal or exceed 2%?
no (0)

Check the entry Cc1c2ccc(N(C)c3ccnc(Nc4cccc(S(N)(=O)=O)c4)n3)cc2nn1C : does inhibition equal or exceed 2%?
yes (1)

Cited source for all entries: ChEMBL document CHEMBL1961873
